METRIC: melting point

The cases that follow already have their melting point on record.
• COc1cc(-c2cnc3c(NC(=O)NC(C)(C)C)ccnc3c2)ccc1O [Compound 12] = 158 to 159 °C
• Cn1cc(-c2cnc3ccc(NC(=O)NCc4ccccc4)nc3c2)cn1 [Compound 28] = 257 to 258 °C
• Cn1cc(-c2cnc3c(NC(=O)NC4CCC4)ccnc3c2)cn1 [Compound 17] = 215 to 216 °C

Inquiry: Recorded melting point for CCNC(=O)Nc1ccnc2cc(-c3ccc(O)c(OC)c3)cnc12 [Compound 9] , please?
Reply text: 202 to 203 °C

Inquiry: Same lookup for O=C(Nc1ccnc2cc(-c3ccccc3)cnc12)NC1CC1 [Compound 39] , please.
Reply text: 188 to 190 °C

Inquiry: Same lookup for CCCNC(=O)Nc1ccnc2cc(-c3cnn(C)c3)cnc12 [Compound 19] , please.
Reply text: 216 to 217 °C

Inquiry: Same lookup for Cn1cc(-c2cnc3c(NC(=O)NCc4ccccc4)ccnc3c2)cn1 [Compound 31] , please.
Reply text: 237 to 238 °C

Inquiry: Same lookup for CCNC(=O)Nc1ccnc2cc(-c3cc(C)c(O)c(C)c3)cnc12 [Compound 16] , please.
Reply text: 213 to 214 °C

Inquiry: Same lookup for Cn1cc(-c2cnc3c(NC(=O)Nc4ccccc4)ccnc3c2)cn1 [Compound 23] , please.
Reply text: 294 to 295 °C

Inquiry: Same lookup for Cn1cc(-c2cnc3c(NC(=O)NCCc4ccccc4)ccnc3c2)cn1 [Compound 33] , please.
Reply text: 222 to 223 °C

Inquiry: Same lookup for Cn1cc(-c2cnc3ccc(NC(=O)NCCc4ccccc4)nc3c2)cn1 [Compound 5] , please.
Reply text: 237 to 238 °C

====

ASSAYED_TARGET: Erk2 (Homo sapiens, UniProt P28482)
Construct: in some cases as full-length kinases, in some cases as truncated fragments
Sequence (P28482 whole entry, the tested form may be a part): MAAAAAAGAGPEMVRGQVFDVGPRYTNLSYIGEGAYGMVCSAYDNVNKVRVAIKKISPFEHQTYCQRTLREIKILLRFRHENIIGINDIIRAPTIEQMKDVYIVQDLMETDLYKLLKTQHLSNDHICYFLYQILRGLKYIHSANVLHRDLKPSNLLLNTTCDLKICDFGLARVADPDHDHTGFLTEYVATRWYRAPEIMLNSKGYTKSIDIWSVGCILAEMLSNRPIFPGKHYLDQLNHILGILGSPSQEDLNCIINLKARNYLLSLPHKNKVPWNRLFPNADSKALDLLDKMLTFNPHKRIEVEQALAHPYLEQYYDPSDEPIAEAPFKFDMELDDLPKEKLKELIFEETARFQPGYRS
ASSAY: Cell-free kinase assay (ALPHA technology), Erk2
SETUP_CONDITIONS: at 10 μM ATP
pIC50: −log10 of the molar value.
# pIC50 per record follows

* O=C(Nc1ccnc2cc(-c3ccc4[nH]ccc4c3)cnc12)NC1CC1 | < 4.00

Inquiry: Recorded pIC50 for `CCCNC(=O)Nc1ccnc2cc(-c3cnn(C)c3)cnc12` , please?
Reply text: < 4.00

Inquiry: Same lookup for `Cn1cc(-c2cnc3c(NC(=O)NC(C)(C)C)ccnc3c2)cn1` , please.
Reply text: < 4.50

Inquiry: Same lookup for `CCNC(=O)Nc1ccnc2cc(-c3ccc(O)c(OC)c3)cnc12` , please.
Reply text: ~4.00

Inquiry: Same lookup for `Cn1cc(-c2cnc3c(NC(=O)NCc4ccccc4)ccnc3c2)cn1` , please.
Reply text: < 4.00

====

# melting point per record follows

The cases that follow already have their melting point on record.
- CCNC(=O)Nc1ccc2ncc(-c3ccc(OC)cc3)cc2n1: 264 to 265 °C
- Cn1cc(-c2cnc3c(NC(=O)NC4CCCC4)ccnc3c2)cn1: 207 to 208 °C
- O=C(Nc1ccnc2cc(-c3cnn(CCN4CCOCC4)c3)cnc12)NC1CC1: 127 to 129 °C
- CC(C)(C)NC(=O)Nc1ccnc2cc(-c3cc(Cl)c(O)c(Cl)c3)cnc12: > 300 °C

We now examine a further compound.
Inquiry: Recorded melting point for `CCNC(=S)Nc1ccc2ncc(Nc3cc(OC)c(OC)c(OC)c3)cc2n1` , please?
Reply text: 237 to 238 °C
